Tested on: ATXN3 transcripts containing exon 4 (E4E5)
Assay: ATXN3 quantitative splicing assay (qPCR, SK-N-MC cells)
Format: cell-based
Details: Homo sapiens, 24 h treatment, qPCR E4E5 primers/probe, read-out: ATXN3 Potency - Splicing E4E5 IC50
pIC50: −log10 of the molar value.
property: pIC50

Example compounds with recorded pIC50:
compound: C#CC[C@H](N)Cc1sc2c(NCc3cccs3)cnnc2c1C
pIC50: 5.30 to 6.30
//
compound: COc1ccsc1CNc1cnnc2c(C)c(C[C@H](C)N)sc12
pIC50: 4.40 to 5.00
//
compound: N[C@@H](COC1CC1)Cc1sc2c(NCc3cccs3)cnnc2c1Br
pIC50: 5.30 to 6.30

query: Which pIC50 value belongs to `Cc1c(C[C@H](N)C[C@H]2CC2(F)F)sc2c(NCc3cccs3)cnnc12` ?
result: 5.00 to 5.30

query: Item: `Cc1c(C[C@@H](N)C[C@@H]2CC2(F)F)sc2c(NCc3cccs3)cnnc12`
result: 4.40 to 5.00

query: Quick one: `C[C@H](N)Cc1sc2c(NCc3cccs3)cnnc2c1Cl`
result: 6.30 to 7.00

query: Same question, `Cc1c(C[C@H](C)N)sc2c(NCc3cc(F)cs3)cnnc12` this time
result: 5.30 to 6.30

query: One more compound: Cc1c(C[C@@H](N)C[S+](C)[O-])sc2c(NCc3cccs3)cnnc12 (some centres unmarked)
result: 5.00 to 5.30

* * *

System: ATXN3 transcripts containing exon 4 (E4E5)
Assay: ATXN3 quantitative splicing assay (qPCR, SK-N-MC cells)
Format: cell-based
Settings: Homo sapiens, 24 h treatment, qPCR E4E5 primers/probe, read-out: ATXN3 Potency - Splicing E4E5 IC50
property: IC50

Some solved cases for reference:
compound: Cc1c(C[C@@H](N)CO)sc2c(NCc3cccs3)cnnc12 [Compound 3]
property: IC50
measured result: 0.501 to 5 µM
//
compound: Cc1c(C(C)(C)O)sc2c(NCc3cccs3)cnnc12 [Compound 65]
property: IC50
measured result: 10 to 40 µM
//
compound: Cc1c(C[C@@H](N)CC(F)(F)F)sc2c(NCc3cccs3)cnnc12 [Compound 50]
property: IC50
measured result: 0.501 to 5 µM

query: Reported IC50, compound Cc1c(C[C@H](C)N)sc2c(NCc3csc(F)c3)cnnc12 [Compound 56] : ____
result: 10 to 40 µM

query: Record: Cc1c([C@@H](C)[C@@H](C)N)sc2c(NCc3cccs3)cnnc12 [Compound 102]
result: 10 to 40 µM

query: Same question for Cc1c(C[C@H](C)N)sc2c(NCc3ccco3)cnnc12 [Compound 2] please.
result: 0.501 to 5 µM

query: Proceed to Cc1c(C[C@@H](N)CC2CC2)sc2c(NCc3cccs3)cnnc12 [Compound 68]
result: 0.501 to 5 µM

query: Then this compound: N[C@@H](CO)Cc1sc2c(NCc3ccco3)cnnc2c1Cl [Compound 96]
result: 0.101 to 0.5 µM

query: Cool, now Cc1c(C[C@H](C)N)sc2c(NCc3sccc3F)cnnc12 [Compound 10]
result: 0.501 to 5 µM

* * *

Tested on: ATXN3 transcripts containing exon 4 (E4E5)
Test: ATXN3 quantitative splicing assay (qPCR, SK-N-MC cells)
Format: cell-based
Settings: Homo sapiens, 24 h treatment, qPCR E4E5 primers/probe, read-out: ATXN3 Potency - Splicing E4E5 IC50
List of IC50 values.

Here is how some compounds turned out for IC50.
compound: C[C@H](N)C(F)(F)c1sc2c(NCc3cccs3)cnnc2c1Br [Compound 140]
assay system: ATXN3 transcripts containing exon 4 (E4E5)
IC50: 0.501 to 5 µM
//
compound: Cc1c(C[C@@H](N)C2CC2)sc2c(NCc3ccco3)cnnc12 [Compound 64]
assay system: ATXN3 transcripts containing exon 4 (E4E5)
IC50: 5 to 10 µM
//
compound: Cc1c(C[C@H](C)N)sc2c(NCc3ccsc3)cnnc12 [Compound 8]
assay system: ATXN3 transcripts containing exon 4 (E4E5)
IC50: 0.501 to 5 µM
//
compound: Cc1c(C[C@@H](N)COC(F)F)sc2c(NCc3cccs3)cnnc12 [Compound 133]
assay system: ATXN3 transcripts containing exon 4 (E4E5)
IC50: 0.501 to 5 µM
//
compound: C#Cc1c(C[C@H](C)N)sc2c(NCc3cccs3)cnnc12 [Compound 116]
assay system: ATXN3 transcripts containing exon 4 (E4E5)
IC50: 1e-05 to 0.1 µM

query: If you can, please state the reported IC50 value of C[C@H](N)Cc1sc2c(NCc3cccs3)cnnc2c1C1CC1 [Compound 80] .
result: 0.501 to 5 µM

query: # repeat for Cc1c(C[C@@H](N)CCO)sc2c(NCc3cccs3)cnnc12 [Compound 61]
result: 0.501 to 5 µM

query: Next entry: Cc1c(C[C@@H](N)CS(C)(=O)=O)sc2c(NCc3cccs3)cnnc12 [Compound 60]
result: 5 to 10 µM

query: Next: CSC[C@H](N)Cc1sc2c(NCc3ccco3)cnnc2c1C [Compound 30]
result: 0.501 to 5 µM

query: Item: Cc1c(C[C@H](C)N)sc2c(NCc3nccs3)cnnc12 [Compound 6]
result: 0.501 to 5 µM

query: Next: Cc1c(C[C@@H](N)CCF)sc2c(NCc3cccs3)cnnc12 [Compound 48]
result: 0.501 to 5 µM

query: Could you do the same for CCc1c(C[C@H](C)N)sc2c(NCc3cccs3)cnnc12 [Compound 23] , please?
result: 5 to 10 µM

query: Here is the next compound: Cc1c(C[C@@H](N)CC#N)sc2c(NCc3cccs3)cnnc12 [Compound 27]
result: 0.501 to 5 µM

query: Try this compound next: C=C(C)c1sc2c(NCc3cccs3)cnnc2c1C [Compound 37]
result: 10 to 40 µM

query: Again, but for COc1c(C[C@H](C)N)sc2c(NCc3cccs3)cnnc12 [Compound 22]
result: 0.501 to 5 µM

query: Could you do the same for Cc1c([C@@H](O)[C@H](C)N)sc2c(NCc3cccs3)cnnc12 (single isomer, unassigned) [Compound 42] , please?
result: 5 to 10 µM

query: // repeat for Cc1c(CCN)sc2c(NCc3ccco3)cnnc12 [Compound 21] and report
result: 10 to 40 µM

query: Cc1c(C[C@H](C)N)sc2c(NCc3cncs3)cnnc12 [Compound 44] , same question.
result: 10 to 40 µM

query: Next compound up: N[C@@H](CO)Cc1sc2c(NCc3cccs3)cnnc2c1Cl [Compound 91]
result: 0.101 to 0.5 µM

query: Ok, now Cc1c(C[C@@H](N)CCF)sc2c(NCc3ccco3)cnnc12 [Compound 31]
result: 0.501 to 5 µM
